Recorded measurements of pIC50, one per entry
# TEST TARGET: Cytochrome P450 1A2 (Homo sapiens, UniProt P05177)
# Sequence (P05177 whole entry): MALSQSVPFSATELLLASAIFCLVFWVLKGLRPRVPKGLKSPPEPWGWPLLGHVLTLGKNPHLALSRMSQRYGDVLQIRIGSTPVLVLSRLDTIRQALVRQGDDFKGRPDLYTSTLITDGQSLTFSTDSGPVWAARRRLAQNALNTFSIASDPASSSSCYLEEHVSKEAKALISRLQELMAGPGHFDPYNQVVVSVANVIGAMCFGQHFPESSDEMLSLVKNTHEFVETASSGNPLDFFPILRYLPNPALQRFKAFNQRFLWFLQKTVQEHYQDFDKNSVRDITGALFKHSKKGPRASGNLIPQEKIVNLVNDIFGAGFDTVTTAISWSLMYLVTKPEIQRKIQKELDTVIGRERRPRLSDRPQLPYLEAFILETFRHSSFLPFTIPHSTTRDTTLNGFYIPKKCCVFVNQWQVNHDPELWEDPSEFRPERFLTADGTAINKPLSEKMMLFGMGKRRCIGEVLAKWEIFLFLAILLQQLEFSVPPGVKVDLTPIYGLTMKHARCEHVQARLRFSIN
pIC50: −log10 of the molar value.

- MOLECULE: "CS(C)(=O)=Nc1ccc(-c2ccc(-c3nc4cc(O[C@@H]5CO[C@H]6[C@@H]5OC[C@H]6O)[nH]c4cc3F)cc2)nc1"
  pIC50: "< 5.00"
- MOLECULE: "CS(C)(=O)=Nc1ccc(-c2ccc(-c3nc4cc(O[C@@H]5CO[C@H]6[C@@H]5OC[C@H]6O)[nH]c4cc3F)cc2)cc1"
  pIC50: "< 5.00"

###

Recorded measurements of remaining at 0.5 h, one per entry
# EXPERIMENTAL DETAILS: Metabolic stability in human liver microsomes assessed as compound remaining measured after 30 mins
# Type: ADME, Microsome
# SETTINGS: read-out: Stability

- MOLECULE: "CS(C)(=O)=Nc1ccc(-c2ccc(-c3nc4cc(O[C@@H]5CO[C@H]6[C@@H]5OC[C@H]6O)[nH]c4cc3F)cc2)cc1"
  OP: ">"
  remaining at 0.5 h, %: 99
- MOLECULE: "O=S1(=Nc2ccc(-c3ccc(-c4nc5cc(O[C@@H]6CO[C@H]7[C@@H]6OC[C@H]7O)[nH]c5cc4F)cc3)cc2)CCCC1"
  OP: "="
  remaining at 0.5 h, %: 98
- MOLECULE: "CS(C)(=O)=Nc1ccc(-c2ccc(-c3nc4cc(O[C@@H]5CO[C@H](CO)C5)[nH]c4cc3F)cc2)cc1"
  OP: "="
  remaining at 0.5 h, %: 94
- MOLECULE: "CS(C)(=O)=Nc1ccc(-c2ccc(-c3nc4cc(O[C@@H]5CO[C@H]6[C@@H]5OC[C@H]6O)[nH]c4cc3F)cc2)nc1"
  OP: ">"
  remaining at 0.5 h, %: 99

###

Recorded measurements of Kp, one per entry
# EXPERIMENTAL DETAILS: […] of the compound in rat liver at 1 mg/kg, po or 0.5 mg/kg, iv
# Type: ADME, organism-based

- MOLECULE: "O=S1(=Nc2ccc(-c3ccc(-c4nc5cc(O[C@@H]6CO[C@H]7[C@@H]6OC[C@H]7O)[nH]c5cc4F)cc3)cc2)CCCC1"
  Kp: 3.34
- MOLECULE: "CS(C)(=O)=Nc1ccc(-c2ccc(-c3nc4cc(O[C@@H]5CO[C@H]6[C@@H]5OC[C@H]6O)[nH]c4cc3F)cc2)cc1"
  Kp: 2.4
- MOLECULE: "CS(C)(=O)=Nc1ccc(-c2ccc(-c3nc4cc(O[C@@H]5CO[C@H]6[C@@H]5OC[C@H]6O)[nH]c4cc3F)cc2)nc1"
  Kp: 2.19
- MOLECULE: "CS(C)(=O)=Nc1ccc(-c2ccc(-c3nc4cc(O[C@@H]5CO[C@H](CO)C5)[nH]c4cc3F)cc2)cc1"
  Kp: 7.14
